Structures can show the parent of a compound that is named as a salt.
Let's go through some Compound Myofibroblast Cytotoxicity Activity measurements on hDMFa myofibroblast cells together.
measure-name: Compound Myofibroblast Cytotoxicity Activity

| compound | assay-system | test-result |
| --- | --- | --- |
| CCN(CC)CCOc1ccc(C(=C(Cl)c2ccccc2)c2ccccc2)cc1 [Cmpd 284, Clomiphene citrate] | hDMFa myofibroblast cells | +++ |
| CO[C@H]1/C=C/O[C@@]2(C)Oc3c(C)c(O)c4c(O)c(c(/C=N/N5CCN(C6CCCC6)CC5)c(O)c4c3C2=O)NC(=O)/C(C)=C\C=C\[C@H](C)[C@H](O)[C@@H](C)[C@@H](O)[C@@H](C)[C@H](OC(C)=O)[C@@H]1C [Cmpd 834, Rifapentine] | hDMFa myofibroblast cells | +++ |
| CCCc1nn(C)c2c(=O)[nH]c(-c3cc(S(=O)(=O)N4CCN(C)CC4)ccc3OCC)nc12.CS(=O)(=O)O [Cmpd 862, Sildenafil mesylate] | hDMFa myofibroblast cells | ++ |
| COc1cc2ccc(=O)oc2cc1O [Cmpd 857, Scopoletin] | hDMFa myofibroblast cells | ++ |
| CCCCC(=O)O[C@H]1CC[C@H]2[C@@H]3CCc4cc(O)ccc4[C@H]3CC[C@]12C [Cmpd 431, Estradiol valerate] | hDMFa myofibroblast cells | +++ |
| CC1(C)O[C@@H]2C[C@H]3[C@@H]4C[C@H](F)C5=CC(=O)C=C[C@]5(C)[C@H]4[C@@H](O)C[C@]3(C)[C@]2(C(=O)CO)O1 [Cmpd 461, Flunisolide] | hDMFa myofibroblast cells | ++ |
| CN1CCN2c3ncccc3Cc3ccccc3C2C1 (stereo not shown) [Cmpd 679, Mirtazapine] | hDMFa myofibroblast cells | ++++ |

---

Tested on: hDMFa myofibroblast cells
measure-name: Compound Myofibroblast Cytotoxicity Activity

| molecule | test-result |
| --- | --- |
| CO[C@H]1C[C@@H]2CC[C@@H](C)[C@@](O)(O2)C(=O)C(=O)N2CCCC[C@H]2C(=O)O[C@H]([C@H](C)C[C@@H]2CC[C@@H](OCCO)[C@H](OC)C2)CC(=O)[C@H](C)/C=C(\C)[C@@H](O)[C@@H](OC)C(=O)[C@H](C)C[C@H](C)/C=C/C=C/C=C/1C [Cmpd 446, Everolimus (RAD001)] | +++++ |
| Cc1ncc(CO)c(CO)c1O | ++ |
| CO[C@H]1C[C@@H]2CC[C@@H](C)[C@@](O)(O2)C(=O)C(=O)N2CCCC[C@H]2C(=O)O[C@H]([C@H](C)C[C@@H]2CC[C@@H](O)[C@H](OC)C2)CC(=O)[C@H](C)/C=C(\C)[C@@H](O)[C@@H](OC)C(=O)[C@H](C)C[C@H](C)/C=C/C=C/C=C/1C [Cmpd 820, Rapamycin (Sirolimus)] | ++++ |
| O=S(=O)([O-])c1cc(O)ccc1O.O=S(=O)([O-])c1cc(O)ccc1O.[Ca+2] [Cmpd 205, Calcium dobesilate] | ++ |
| O[C@H](CS)[C@H](O)CS (racemic) | ++++ |

---

Structures can show the parent of a compound that is named as a salt.
Let's go through some Compound Myofibroblast Cytotoxicity Activity measurements on hDMFa myofibroblast cells together.
measure-name: Compound Myofibroblast Cytotoxicity Activity

| compound | assay-system | test-result |
| --- | --- | --- |
| CS(=O)(=O)O.C[C@H]1COc2c(C3(N)CC3)c(F)cc3c(=O)c(C(=O)O)cn1c23 [Cmpd 760, Pazufloxacin mesylate] | hDMFa myofibroblast cells | +++ |
| Cc1ccc(NC(=O)c2ccc(CN3CC[C@H](N(C)C)C3)c(C(F)(F)F)c2)cc1Nc1nccc(-c2cncnc2)n1 | hDMFa myofibroblast cells | +++ |
| CC(C)(C)NC(=O)[C@@H]1C[C@@H]2CCCC[C@@H]2CN1C[C@@H](O)[C@H](Cc1ccccc1)NC(=O)[C@H](CC(N)=O)NC(=O)c1ccc2ccccc2n1 [Cmpd 852, Saquinavir mesylate] | hDMFa myofibroblast cells | ++++ |
| O=C1NC(=O)[C@@H](c2cn3c4c(cccc24)CCC3)[C@@H]1c1c[nH]c2ccccc12 [Cmpd 950, Tivantinib (ARQ 197)] | hDMFa myofibroblast cells | ++ |
| Br.NCCc1cc(O)c(O)cc1O | hDMFa myofibroblast cells | ++++ |
| CO/N=C(\C(=O)N[C@@H]1C(=O)N2C(C(=O)OCOC(=O)C(C)(C)C)=C(C)CS[C@H]12)c1csc(N)n1.Cl [Cmpd 230, Cefetamet pivoxil hydrochloride] | hDMFa myofibroblast cells | +++++ |

---

Let's go through some Compound Myofibroblast Cytotoxicity Activity measurements on hDMFa myofibroblast cells together.
measure-name: Compound Myofibroblast Cytotoxicity Activity

| molecule | test-result |
| --- | --- |
| CCCCCCCCCC(=O)O [Cmpd 212, Caprate (10:0)] | ++ |
| COc1ccc2[n-]c([S+]([O-])Cc3ncc(C)c(OC)c3C)nc2c1.[Na+] (stereo not shown) [Cmpd 737, Omeprazole Sodium] | ++ |
| CCC1(C)CC(=O)NC1=O (stereo not shown) [Cmpd 436, Ethosuximide] | ++ |
| O=C(O)c1cc(-c2ccccc2)nc2ccccc12 [Cmpd 265, Cinchophen] | ++ |
| O=C1/C(=C2\Nc3ccc(S(=O)(=O)[O-])cc3C2=O)Nc2ccc(S(=O)(=O)[O-])cc21.[Na+].[Na+] [Cmpd 528, Indigo carmine] | ++ |
| C=C1CC/C=C(\C)CC[C@@H]2[C@@H]1CC2(C)C [Cmpd 8, β-Caryophyllene] | +++ |
| Nc1cc[nH]c(=O)n1 [Cmpd 304, Cytosine] | ++ |
| COc1ccc(CCN2CCC(Nc3nc4ccccc4n3Cc3ccc(F)cc3)CC2)cc1 [Cmpd 136, Astemizole] | ++++ |
| Clc1ccc(COC(Cn2ccnc2)c2ccc(Cl)cc2Cl)cc1 (stereo not shown) [Cmpd 403, Econazole nitrate] | +++ |
| CC(C)(O)c1ccccc1CC[C@@H](SCC1(CC(=O)O)CC1)c1cccc(/C=C/c2ccc3ccc(Cl)cc3n2)c1 [Cmpd 689, Montelukast Sodium] | +++++ |

---

Let's go through some Compound Myofibroblast Cytotoxicity Activity measurements on hDMFa myofibroblast cells together.
Structures can show the parent of a compound that is named as a salt.
measure-name: Compound Myofibroblast Cytotoxicity Activity

| compound | test-result |
| --- | --- |
| CC(C)(C)C(=O)Oc1ccc(S(=O)(=O)Nc2ccccc2C(=O)NCC(=O)O)cc1 | ++ |
| NCCc1ccc(O)cc1 | ++ |
| C[C@]1(OC(=O)/C=C/c2ccccc2)C[C@@H](O)[C@]2(O)C=CO[C@@H](O[C@@H]3O[C@H](CO)[C@@H](O)[C@H](O)[C@H]3O)[C@@H]21 [Cmpd 499, Harpagoside] | ++ |
| Cc1ccc(C(=O)N(CCCN)[C@@H](c2nc3cc(Cl)ccc3c(=O)n2Cc2ccccc2)C(C)C)cc1 [Cmpd 543, Ispinesib (SB-715992)] | +++++ |
| CCOc1nc2cccc(C(=O)O)c2n1Cc1ccc(-c2ccccc2-c2nnn[nH]2)cc1 | ++ |
| CCCCc1oc2ccccc2c1C(=O)c1cc(I)c(OCCN(CC)CC)c(I)c1 [Cmpd 107, Amiodarone HCl] | +++ |
| CCc1c(Cl)c(O)c(Cl)c(O)c1C(=O)O[C@H]1[C@H](O)[C@H](OC)[C@H](OC/C2=C\C=C\C[C@H](O)/C(C)=C/[C@H](CC)[C@@H](O[C@@H]3OC(C)(C)[C@@H](OC(=O)C(C)C)[C@H](O)[C@@H]3O)/C(C)=C/C(C)=C/C[C@@H]([C@@H](C)O)OC2=O)O[C@@H]1C | +++++ |
| CCOC(=O)C1=C(COCCN)NC(C)=C(C(=O)OC)[C@@H]1c1ccccc1Cl | +++++ |
| Nc1ccc(S(N)(=O)=O)cc1 [Cmpd 898, Sulfanilamide] | ++++ |
| Cn1cc(C2=C(c3cn(C4CCN(Cc5ccccn5)CC4)c4ccccc34)C(=O)NC2=O)c2ccccc21 | ++++ |
| Clc1ccccc1C(c1ccccc1)(c1ccccc1)n1ccnc1 | +++ |
| O[C@H]1[C@H](O)[C@@H](O)[C@H](O)[C@@H](O)[C@H]1O | ++++ |
| Oc1c(Cl)cc(Cl)c(Cl)c1Cc1c(O)c(Cl)cc(Cl)c1Cl | +++++ |
| Oc1ncnc2[nH]ncc12 | + |

---

Let's go through some Compound Myofibroblast Cytotoxicity Activity measurements on hDMFa myofibroblast cells together.
measure-name: Compound Myofibroblast Cytotoxicity Activity

| compound | test-result |
| --- | --- |
| Cl.Cl.OCCN1CCN(CCCN2c3ccccc3Sc3ccc(C(F)(F)F)cc32)CC1 [Cmpd 465, Fluphenazine dihydrochloride] | +++++ |
| C/C1=C2/[N-][C@H]([C@H](CC(N)=O)[C@@]2(C)CCC(=O)NC[C@@H](C)OP(=O)([O-])O[C@H]2[C@@H](O)[C@@H](n3cnc4cc(C)c(C)cc43)O[C@@H]2CO)[C@]2(C)N=C(/C(C)=C3N=C(/C=C4N=C1[C@@H](CCC(N)=O)C\4(C)C)[C@@H](CCC(N)=O)[C@]\3(C)CC(N)=O)[C@@H](CCC(N)=O)[C@]2(C)CC(N)=O.[CH3-].[Co+3] | ++ |
